targetDesc: T1, human CD3 expressed on cells (Jurkat cells; human primary T cells) (human, UniProt P07766 23-207; P04234 22-171; P09693 23-182)
T1 construct: whole, on cells
T1 sequence (P07766 23-207, chain 1 of 3): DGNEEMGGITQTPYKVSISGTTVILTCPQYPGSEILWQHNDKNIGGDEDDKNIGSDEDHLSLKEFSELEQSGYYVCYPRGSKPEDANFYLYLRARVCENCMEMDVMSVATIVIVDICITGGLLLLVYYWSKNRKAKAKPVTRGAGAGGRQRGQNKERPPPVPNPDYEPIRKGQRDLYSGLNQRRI
T1 sequence (P04234 22-171, chain 2 of 3): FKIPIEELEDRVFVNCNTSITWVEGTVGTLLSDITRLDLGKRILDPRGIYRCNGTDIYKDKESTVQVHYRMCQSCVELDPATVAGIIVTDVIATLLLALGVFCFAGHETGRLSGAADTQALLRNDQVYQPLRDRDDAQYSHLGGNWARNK
T1 sequence (P09693 23-182, chain 3 of 3): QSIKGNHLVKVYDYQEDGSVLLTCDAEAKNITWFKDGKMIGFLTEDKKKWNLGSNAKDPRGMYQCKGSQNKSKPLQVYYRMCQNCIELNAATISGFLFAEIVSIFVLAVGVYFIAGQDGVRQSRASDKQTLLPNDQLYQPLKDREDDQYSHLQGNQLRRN
assayDetails: flow cytometry, 25 nM, Jurkat cells
measurementLabel: Binding (FOI)
Answers are plain numbers, in FOI.

Guide cases for Binding (FOI), answers given:
mAb 222 (antibody, V domains shown, VH/VL only) VH: QVQLVESGGGVVQPGRSLRLSCAASGFTFSGYGMHWVRQAPGKGLEWVAIIYYNGKKEYYADSVKGRFTISRDNSKNTVYLQMNSLRAEDTAVYYCTRGEGYNWFDPWGQGTLVTVSS VL: KIVMTQSPATLSVSPGERATLSCRASQSVSSNLAWYQQKPGQAPRLLIYGASTRATGIPARFSGSGSGTEFTLTISSLQSEDFAVYYCKQYNNWPLTFGGGTKVEIK ... 180
mAb 218 (antibody, V domains shown, VH/VL only) VH: QVQLVESGGGVVQPGRSLRLSCAASGFTFSGYGMHWVRQAPGKGLEWVAIIYYNGNNRKYADSVRGRFTISRDNSKNTVSLQMNSLRVEDTAIYYCTRGDGYNWFVTWGQGTLVTVSS VL: EIVMTQSPATLSVSPGERATLSCRASQSVSSNLAWYYQKPGQAPRLLIYGASTRATGIPVRFSGSGSGTEFTLTISSLQSEDFAVYYCQQYNNWPLTFGGGTKVEIK ... 179
mAb 290 (antibody, V domains shown, VH/VL only) VH: EVQLVESGGGVVRPGGSLRLSCAASGFTFDDYGMSWVRQAPGKGLEWVSGISWNGGSTGYADSVKGRFTISRDNAKNSLYLQMNSLRAEDTALYHCARDGVPVVKRRYYYYYMDVWGKGTTVTVSS VL: EIVLTQSPDFQSVTPKEKITITCRASQSIGSSLHWYQQKPDQSPKLLIKYASQSFSGVPSRFSGSGSGTDFTLTINSLEAEDAATYYCHQSASLPQTFGQGTKVEIK ... 135
mAb 226 (antibody, V domains shown, VH/VL only) VH: QVQLVESGGGVVQPGRSLRLSCAASGFTFSGYGMHWVRQAPGKGLEWVAIIYYNGNNRKYADSVKGRFTISRDNSKNTVSLQMNSLRVEDTAIYYCTRGDGYNWFVTWGQGTLVTVSS VL: EIVMTQSPATLSVSPGERATLSCRASQSISSNLAWYHQKPGQAPRLLIYGASTRATGIPVRFSGSGSGTEFTLTISSLQSEDFALYYCQQYNNWPLTFGGGTKVEIK ... 176
mAb 206 (antibody, V domains shown, VH/VL only) VH: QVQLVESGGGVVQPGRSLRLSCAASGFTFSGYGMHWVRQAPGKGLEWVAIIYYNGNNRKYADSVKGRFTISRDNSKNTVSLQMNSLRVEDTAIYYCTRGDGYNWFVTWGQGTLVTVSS VL: EIVMTQSPATLSVSPGERATLSCRASQSVSSNLAWYHQKPGQAPRLLIYGASTRATGIPVRFSGSGSGTEFTLTISSLQSEDFAVYYCQQYNNWPLTFGGGTKVEIK ... 186
mAb 214 (antibody, V domains shown, VH/VL only) VH: EVQLLESGGGLVQPGGSLRLSCAASGFTFSNYAMNWVRQAPGKGLEWVSAISGSRSNTYYADSVKGRFTISRDNSKNTLYLQMNSLRAEDTAVYYCAKGAYSKYPYYYYMDVWGKGTTVTVSS VL: EIVMTQSPATLSLSPGERATLSCRASQSVSSSYLSWYQQKPGQAPRLLIYGASTRAIGIPARFSGSGSGTDFTLTISSLQAEDFAVYYCQQDDNLPWTFGQGTKVEIK ... 150

Need Binding (FOI) for each of these binders.
1. mAb 219 (antibody, V domains shown, VH/VL only) VH: QEQLVESGGGVVQPGGSLRLSCAASGFMFSGYGMHWVRQAPGKGLEWVAIIWYNGRKTYYTESVKGRFTISRDNSKNTLSLQMNSLRVEDTAVYYCTAGQGYNWFDPWGQGTLVTVSS VL: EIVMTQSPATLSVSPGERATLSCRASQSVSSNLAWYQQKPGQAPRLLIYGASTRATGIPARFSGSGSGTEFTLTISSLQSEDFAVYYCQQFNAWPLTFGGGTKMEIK
2. mAb 285 (antibody, V domains shown, VH/VL only) VH: EVQLLESGGGLGQPGGSLRLSCAASGFTFSNYAMSWVRQAPGKGLEWVSVISGSGGDKNYADSVKGRFTISRDNSKNTLYLQMNSLRAEDTAVYYCAKKYSYYYYYMDVWGKGTTVTVSS VL: SYELTQPLSVSVALGQTARITCGGNNIGSKDVHWYQQKPGQAPVLVIYRDSNRPSGIPERFSGSNSGNTATLTISSAQAGDEADYYCQVWDSRTAVFGGGTQLTAL

175
232
